- SYSTEM TESTED: recombinant HCV NS3 protease type 1b (Hepatitis C virus genotype 1b, UniProt P26663)
- Construct: recombinant HCV NS3 protease (amino acid 1027 to 1206) was cloned in the pET11d bacterial expression vector
- Sequence (P26663 1027-1206): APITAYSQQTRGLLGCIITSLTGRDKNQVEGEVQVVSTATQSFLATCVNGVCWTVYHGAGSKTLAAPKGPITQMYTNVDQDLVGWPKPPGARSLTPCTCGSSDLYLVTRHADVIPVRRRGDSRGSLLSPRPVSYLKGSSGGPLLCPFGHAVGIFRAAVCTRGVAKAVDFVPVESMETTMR
- ASSAY METHOD TEXT: Recombinant HCV NS3 protease radiometric assay
*1 amine or outer side, *2 acyl side, *3 side chain or, on linkers, in order; H or OH if unused. Where a SMILES comes first, the peptide text is derived from it. [ ]: non-standard residue; d: D form. mXylylene = c1cc(C[*:1])cc(C[*:2])c1; oXylylene = c1ccc(C[*:2])c(C[*:1])c1; Hyp = O=C(O)[C@@H]1C[C@@H](O)CN1; Pip = O=C(O)[C@@H]1CCCCN1; Nva = CCC[C@H](N)C(=O)O; Abu = CC[C@H](N)C(=O)O
REPORTED ENDPOINT: pIC50
Scale: negative log10 of molar concentration, which is what pIC50 denotes.

## Task Dear colleague, I am looking for the recorded pIC50 of the following compound: CCC[C@H](NC(=O)[C@@H]1C[C@@H](OCc2ccccc2C)CN1C(=O)[C@@H](NC(=O)[C@@H](NC(=O)[C@H](CC(=O)O)NC(=O)[C@H](CC(=O)O)NC(C)=O)[C@@H](C)CC)C(C)C)C(=O)O [compound 204] (Ac-DDIV[Hyp](oXylylene)[Nva]-OH; C-terminus assumed)
## Result 5.03

## Task Moving on to CCC[C@H](NC(=O)[C@@H]1C[C@@H](OCc2cccc(C)c2)CN1C(=O)[C@@H](NC(=O)[C@@H](NC(=O)[C@H](CC(=O)O)NC(=O)[C@H](CC(=O)O)NC(C)=O)[C@@H](C)CC)C(C)C)C(=O)O [compound 205] (Ac-DDIV[Hyp](mXylylene)[Nva]-OH; C-terminus assumed)
## Result 5.17

## Task Follow-up entry: CCC[C@H](NC(=O)[C@@H]1CCCCN1C(=O)[C@@H](NC(=O)[C@@H](NC(=O)[C@H](CC(=O)O)NC(=O)[C@H](CC(=O)O)NC(C)=O)[C@@H](C)CC)C(C)C)C(=O)O [compound 127] (Ac-DDIV[Pip][Nva]-OH; C-terminus assumed)
## Result 3.22

## Task Same thing, different compound: CC[C@H](NC(=O)[C@@H](NC(=O)[C@@H](NC(=O)[C@H](CC(=O)O)NC(=O)[C@H](CC(=O)O)NC(C)=O)[C@@H](C)CC)C(C)C)C(=O)N[C@@H](CS)C(=O)O [compound 115] (Ac-DDIV[Abu]C-OH; C-terminus assumed)
## Result 4.24
